- experiment notes: Cytotoxicity against mouse RAW264.7 cells assessed as inhibition of cell proliferation at 50 ug/ml after 48 hrs by MTT assay
- Type: toxicity
Answer not met if inhibition at 48 h, 50 ug/ml is under 10%, and met if it is 10% or more.

(Q) Form field: inhibition at 48 h, 50 ug/ml at least 10%? Entry: Clc1ccc(Nc2nc(-c3ccccc3)nc3sc4c(c23)CCCC4)cc1
(A) met

(Q) Form field: inhibition at 48 h, 50 ug/ml at least 10%? Entry: CCc1nc(NCCc2ccccc2)c2c3c(sc2n1)CCCC3
(A) met

(Q) Form field: inhibition at 48 h, 50 ug/ml at least 10%? Entry: COc1ccc(Nc2nc(C3CC3)nc3sc4c(c23)CCCC4)cc1
(A) met

(Q) Form field: inhibition at 48 h, 50 ug/ml at least 10%? Entry: CCc1nc(NCc2ccccc2)c2c3c(sc2n1)CCCC3
(A) not met

(Q) Form field: inhibition at 48 h, 50 ug/ml at least 10%? Entry: CCc1nc(Nc2ccc(Cl)cc2)c2c3c(sc2n1)CCCC3
(A) met

(Q) Form field: inhibition at 48 h, 50 ug/ml at least 10%? Entry: CCc1nc(Nc2c(C)cccc2C)c2c3c(sc2n1)CCCC3
(A) met

(Q) Form field: inhibition at 48 h, 50 ug/ml at least 10%? Entry: Clc1ccc(Nc2nc(C3CC3)nc3sc4c(c23)CCCC4)cc1
(A) met

(Q) Form field: inhibition at 48 h, 50 ug/ml at least 10%? Entry: CCc1nc(Nc2ccc(Br)cc2)c2c3c(sc2n1)CCCC3
(A) met

(Q) Form field: inhibition at 48 h, 50 ug/ml at least 10%? Entry: Cc1cccc(C)c1Nc1nc(C2CC2)nc2sc3c(c12)CCCC3
(A) met

(Q) Form field: inhibition at 48 h, 50 ug/ml at least 10%? Entry: c1ccc(CNc2nc(C3CC3)nc3sc4c(c23)CCCC4)cc1
(A) met

(Q) Form field: inhibition at 48 h, 50 ug/ml at least 10%? Entry: CCc1nc(Nc2ccc(C)cc2C)c2c3c(sc2n1)CCCC3
(A) not met

###

- experiment notes: Cytotoxicity against mouse RAW264.7 cells assessed as inhibition of cell proliferation at 50 ug/ml after 48 hrs by MTT assay
- Assay type: toxicity
I'd be grateful if you could share measured inhibition at 48 h, 50 ug/ml for these entries.
Express your answer in %, writing the number without its unit.

(Q) What value of inhibition at 48 h, 50 ug/ml has been reported for the following compound? c1ccc(Nc2nc(-c3ccccc3)nc3sc4c(c23)CCCC4)cc1
(A) 7.15

(Q) What value of inhibition at 48 h, 50 ug/ml has been reported for the following compound? c1ccc(CCNc2nc(-c3ccccc3)nc3sc4c(c23)CCCC4)cc1
(A) 24.6

(Q) What value of inhibition at 48 h, 50 ug/ml has been reported for the following compound? CCc1nc(Nc2ccc(OC)cc2)c2c3c(sc2n1)CCCC3
(A) 15.2

(Q) What value of inhibition at 48 h, 50 ug/ml has been reported for the following compound? Fc1ccc(Nc2nc(-c3ccccc3)nc3sc4c(c23)CCCC4)cc1
(A) 33.4

(Q) What value of inhibition at 48 h, 50 ug/ml has been reported for the following compound? Cc1ccc(Nc2nc(C3CC3)nc3sc4c(c23)CCCC4)c(C)c1
(A) 23.9

(Q) What value of inhibition at 48 h, 50 ug/ml has been reported for the following compound? COc1ccc(Nc2nc(-c3ccccc3)nc3sc4c(c23)CCCC4)cc1
(A) 28.2

Value source: ChEMBL document CHEMBL3853352
